Biological target: T1, full-length recombinant human PAD4 (human, UniProt Q9UM07 1-663)
T1 construct: Full-length recombinant; also called peptidylarginine deiminase 4
T1 sequence (Q9UM07 whole entry): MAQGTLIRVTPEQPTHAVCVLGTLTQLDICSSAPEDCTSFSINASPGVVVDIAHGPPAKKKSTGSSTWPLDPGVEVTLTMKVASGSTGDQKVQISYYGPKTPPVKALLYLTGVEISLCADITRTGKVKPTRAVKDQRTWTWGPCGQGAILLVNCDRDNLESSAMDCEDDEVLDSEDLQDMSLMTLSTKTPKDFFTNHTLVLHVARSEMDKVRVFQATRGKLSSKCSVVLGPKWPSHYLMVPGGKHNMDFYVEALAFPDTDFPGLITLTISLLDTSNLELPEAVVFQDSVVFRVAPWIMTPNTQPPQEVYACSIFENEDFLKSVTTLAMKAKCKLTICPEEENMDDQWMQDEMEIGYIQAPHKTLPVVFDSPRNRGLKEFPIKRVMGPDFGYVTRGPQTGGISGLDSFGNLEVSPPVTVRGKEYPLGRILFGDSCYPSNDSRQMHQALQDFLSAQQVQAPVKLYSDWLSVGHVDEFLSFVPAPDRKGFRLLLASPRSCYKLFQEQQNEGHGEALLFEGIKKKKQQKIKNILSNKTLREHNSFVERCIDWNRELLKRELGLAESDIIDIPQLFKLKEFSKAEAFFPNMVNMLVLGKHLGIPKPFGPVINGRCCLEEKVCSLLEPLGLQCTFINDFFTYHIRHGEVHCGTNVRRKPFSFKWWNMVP
Test: ELISA, immobilized human PAD4
Property: O.D. 490/630 at 0.5 µg/mL; scope: individual binders
recorded.endpoint: O.D. 490/630 at 0.5 µg/mL

{"columns": ["binder", "value"],
 "data": [
  ["humanized anti-PAD4 antibody derived from H7, VH H4.15 / VL L4.06 (antibody, IgG1, V domains shown, IgG1 kappa; also called H7 H4.15/L4.06) VH: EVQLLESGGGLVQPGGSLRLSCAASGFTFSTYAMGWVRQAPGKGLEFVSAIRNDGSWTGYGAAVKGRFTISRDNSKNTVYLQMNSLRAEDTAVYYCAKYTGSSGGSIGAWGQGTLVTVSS VL: SYELTQPPSVSVSPGQTARITCSGGSGRYYYGWYQQKPGQAPVTVIYSSTHRPSGIPERFSGSYSGNTTTLTISGVQAEDEADYYCGTADSSSYVFGGGTKLTVLG", 1.82],
  ["humanized anti-PAD4 antibody derived from G8, VH H4.15 / VL L4.06 (antibody, human IgG1, kappa, V domains shown, IgG1 kappa; also called G8 H4.15/L4.06) VH: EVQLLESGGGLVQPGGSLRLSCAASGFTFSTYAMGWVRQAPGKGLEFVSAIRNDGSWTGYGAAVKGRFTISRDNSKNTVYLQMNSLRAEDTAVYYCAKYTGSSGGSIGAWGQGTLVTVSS VL: SYELTQPPSVSVSPGQTARITCSGGNRNYYYGWYQQKPGQAPVTVIYANDKRPSGIPERFSGSYSGNTTTLTISGVQAEDEADYYCGTADTGKYVFGGGTKLTVLG", 1.79],
  ["humanized anti-PAD4 antibody derived from H7, VH H4.32 / VL L4.15 (antibody, IgG1, V domains shown, IgG1 kappa; also called H7 H4.32/L4.15) VH: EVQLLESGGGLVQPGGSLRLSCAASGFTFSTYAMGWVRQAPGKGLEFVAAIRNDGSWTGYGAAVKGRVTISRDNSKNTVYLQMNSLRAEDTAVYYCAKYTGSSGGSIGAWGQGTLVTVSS VL: SYELTQPPSVSVSPGQTARITCSGGSGRYYYGWYQQKPGQAPVTVIYSSTHRPSGIPERFSGSNSGNTTTLTISGVQAEDEADYYCGTADSSSYVFGGGTKLTVLG", 1.78]
]}
